# Test system: Fibroblast
# Test: Multiplex assay against human fibroblast
# Assay type: toxicity, cell-based
# Measurement Setup: 48 h, 1 µM, compound concentration 1 uM
Assay Readout: Population Hoechst High Intensity Objects (%)
Reply with just the number (in %).

Prompt: For the molecule COc1ccc(-n2c(C)c([N+](=O)[O-])c3ccc(O)cc32)cc1 , what Population Hoechst High Intensity Objects (%) is on record?
Response: 0

Prompt: For the molecule C[C@@H]1CN(Cc2ccc(F)cc2)CCN1C(=O)COc1ccc(Cl)cc1NC(N)=O [BX 471 FREE BASE] , what Population Hoechst High Intensity Objects (%) is on record?
Response: 5

Prompt: For the molecule Clc1ccccc1C(c1ccccc1)(c1ccccc1)n1cccn1 , what Population Hoechst High Intensity Objects (%) is on record?
Response: 0

Prompt: For the molecule CC(C)CC(=O)Nc1cncc(-c2ccc3[nH]nc(-c4nc5c(-c6cccc(F)c6)cncc5[nH]4)c3c2)c1 , what Population Hoechst High Intensity Objects (%) is on record?
Response: 0

Prompt: For the molecule Cc1noc(C)c1-c1cnc2c(-c3ccc(C(=O)O)cc3)cn([C@@H](C)c3ccccn3)c2c1 , what Population Hoechst High Intensity Objects (%) is on record?
Response: 0

Prompt: For the molecule Cl.Clc1cc2cc(c1)-c1cnn3ccc(nc13)NCCOCCO2 , what Population Hoechst High Intensity Objects (%) is on record?
Response: 0

Prompt: For the molecule COc1ccccc1N1CCN(C[C@@H](C(=O)NC(C)(C)C)c2ccccc2)CC1.Cl.Cl , what Population Hoechst High Intensity Objects (%) is on record?
Response: 5

Prompt: For the molecule CCn1cnc2c(-c3ccc(F)c(-c4ccc(S(=O)(=O)CC)cc4OC)c3)cnnc21 , what Population Hoechst High Intensity Objects (%) is on record?
Response: 0

====

# Test system: U2OS
# Test: Multiplex assay against U2OS
# Format: toxicity, cell-based
# Measurement Setup: human, 12 h, 1 µM, compound concentration 1 uM
Assay Readout: Population Pyknosed Nuclei (%)
Please answer in the form of a number followed by its unit of measurement.

Prompt: Item COc1ccccc1N1CCN(C[C@@H](C(=O)NC(C)(C)C)c2ccccc2)CC1.Cl.Cl with U2OS - Population Pyknosed Nuclei (%)?
Response: 5%

Prompt: Item Br.CS(=O)(=O)Nc1c(O)ccc2c1CCCC2C1=NCCN1 (stereo not given) with U2OS - Population Pyknosed Nuclei (%)?
Response: 3%

Prompt: Item O=C1COc2nccc(-c3ccccc3F)c2CN1Cc1cc(C(F)(F)F)cc(C(F)(F)F)c1 with U2OS - Population Pyknosed Nuclei (%)?
Response: 8%

Prompt: Item CCCC(CCC)C(=O)O [VALPROIC ACID] with U2OS - Population Pyknosed Nuclei (%)?
Response: 8%

Prompt: Item C[C@H](N)COC(=O)[C@@H](CCCCN)NC(=O)Cc1c(-c2ccc3ccccc3c2)[nH]c2c1ccc1ccccc12 with U2OS - Population Pyknosed Nuclei (%)?
Response: 6%

====

Would you kindly list Population Healthy Nuclei (%) for each of these compounds?
# Test system: HEK-293T
# Test: Multiplex assay against HEK293T
# Format: toxicity, cell-based
# Measurement Setup: human, 48 h, 10 µM, compound concentration 10 uM
Reply with just the number (in %).

Prompt: For the compound Cc1ccc(F)cc1C(=O)Nc1ccc(C(=O)N2Cc3cccn3Cc3ccccc32)c(Cl)c1 [LIXIVAPTAN] , what Population Healthy Nuclei (%) is on record?
Response: 74

Prompt: For the compound CCC(=O)OCC(=O)[C@@]1(OC(=O)CC)[C@@H](C)C[C@H]2[C@@H]3CCC4=CC(=O)C=C[C@]4(C)[C@@]3(Cl)[C@@H](O)C[C@@]21C [BECLOMETHASONE DIPROPIONATE] , what Population Healthy Nuclei (%) is on record?
Response: 72

Prompt: For the compound CC(C)(O)C(=O)N1CCN(c2ccc(C(F)(F)F)c(C3=C(c4c[nH]c5ccccc45)C(=O)NC3=O)c2)CC1 , what Population Healthy Nuclei (%) is on record?
Response: 71

Prompt: For the compound CC(C)COc1ccc(CNC(=O)N(Cc2ccc(F)cc2)C2CCN(C)CC2)cc1 [PIMAVANSERIN] , what Population Healthy Nuclei (%) is on record?
Response: 30

====

# Tested on: HEK-293T
# Test: Multiplex assay against HEK293T
# Type: toxicity, cell-based
# Measurement Setup: human, 24 h, 10 µM, compound concentration 10 uM
Non-standard residues stand in square brackets, D forms with d. Residues, ends and D or L forms follow the SMILES beside them.
Would you kindly list Population Membrane Permeable-Phenotype (%) for each of these compounds?
Please answer in the form of a number followed by its unit of measurement.

Prompt: For the compound Cc1ccc(F)cc1C(=O)Nc1ccc(C(=O)N2Cc3cccn3Cc3ccccc32)c(Cl)c1 , what Population Membrane Permeable-Phenotype (%) is on record?
Response: 0%

Prompt: For the compound Br.CS(=O)(=O)Nc1c(O)ccc2c1CCCC2C1=NCCN1 (configuration not stated) , what Population Membrane Permeable-Phenotype (%) is on record?
Response: 0%

Prompt: For the compound CCC(=O)OCC(=O)[C@@]1(OC(=O)CC)[C@@H](C)C[C@H]2[C@@H]3CCC4=CC(=O)C=C[C@]4(C)[C@@]3(Cl)[C@@H](O)C[C@@]21C [BECLOMETHASONE DIPROPIONATE] , what Population Membrane Permeable-Phenotype (%) is on record?
Response: 0%

Prompt: For the compound N#Cc1c(N)nc(SCc2csc(-c3ccc(Cl)cc3)n2)c(C#N)c1-c1ccc(OCCO)cc1 , what Population Membrane Permeable-Phenotype (%) is on record?
Response: 0%

Prompt: For the compound N[C@@]1(C(=O)O)CO[C@H]2[C@H](C(=O)O)[C@H]21 , what Population Membrane Permeable-Phenotype (%) is on record?
Response: 0%

Prompt: For the compound C[C@H](N)COC(=O)[C@@H](CCCCN)NC(=O)Cc1c(-c2ccc3ccccc3c2)[nH]c2c1ccc1ccccc12 , what Population Membrane Permeable-Phenotype (%) is on record?
Response: 0%

Prompt: For the compound CC(C)C[C@@H]1NC(=O)[C@@H](C(C)C)NC(=O)[C@@H]2CCCN2C(=O)[C@@H](CC(=O)O)NC(=O)[C@@H](Cc2c[nH]c3ccccc23)NC1=O [BQ-123] (cyclo(L[dW][dD]P[dV])) , what Population Membrane Permeable-Phenotype (%) is on record?
Response: 0%

====

# Tested on: Fibroblast
# Test: Multiplex assay against human fibroblast
# Format: toxicity, cell-based
# Measurement Setup: 48 h, 1 µM, compound concentration 1 uM
Assay Readout: Population Hoechst High Intensity Objects (%)
Reply with just the number (in %).

Prompt: For the molecule CCOc1ccccc1C(=O)NCC1(N2CCN(CC)CC2)CCCCC1 , what Population Hoechst High Intensity Objects (%) is on record?
Response: 0

Prompt: For the molecule CC(C)C[C@H](NC(=O)c1cc2ccccc2s1)C(=O)N1CCN(C(=O)[C@H](CO)NS(=O)(=O)c2ccc(Cl)cc2Cl)CC1 , what Population Hoechst High Intensity Objects (%) is on record?
Response: 0

Prompt: For the molecule O=c1ccc2ccc(OCCCCN3CCN(c4cccc5sccc45)CC3)cc2[nH]1 , what Population Hoechst High Intensity Objects (%) is on record?
Response: 4

Prompt: For the molecule O=C(NCCO)c1cccc(-c2cc(Nc3ccc(OC(F)(F)F)cc3)ncn2)c1 , what Population Hoechst High Intensity Objects (%) is on record?
Response: 1

Prompt: For the molecule CN(C)CCOc1ccc(/C(=C(/CCCO)c2ccccc2)c2ccc(O)cc2)cc1 , what Population Hoechst High Intensity Objects (%) is on record?
Response: 0

Prompt: For the molecule O=C(Nc1cc(C(F)(F)F)cc(C(F)(F)F)c1)c1cc(Cl)ccc1O , what Population Hoechst High Intensity Objects (%) is on record?
Response: 0

Prompt: For the molecule FC(F)(F)c1ccccc1-c1cc(C(F)(F)F)c2[nH]c(C3=NOC4(CCCCC4)C3)nc2c1 , what Population Hoechst High Intensity Objects (%) is on record?
Response: 0

Prompt: For the molecule CN(C)Cc1cccc(NC(=C2C(=O)Nc3cc(C(N)=O)ccc32)c2ccccc2)c1 , what Population Hoechst High Intensity Objects (%) is on record?
Response: 0

Prompt: For the molecule CNc1nc(NCc2ncccn2)c2c(-c3ccc4ncccc4c3)c[nH]c2n1 , what Population Hoechst High Intensity Objects (%) is on record?
Response: 0

====

# Test system: Fibroblast
# Test: Multiplex assay against human fibroblast
# Format: toxicity, cell-based
# Measurement Setup: 12 h, 1 µM, compound concentration 1 uM
Assay Readout: Population Hoechst High Intensity Objects (%)
Reply with just the number (in %).

Prompt: For the compound O=C(Nc1cc(C(F)(F)F)cc(C(F)(F)F)c1)c1cc(Cl)ccc1O [IMD-0354] , what Population Hoechst High Intensity Objects (%) is on record?
Response: 0

Prompt: For the compound Cl.Clc1cc2cc(c1)-c1cnn3ccc(nc13)NCCOCCO2 , what Population Hoechst High Intensity Objects (%) is on record?
Response: 0

Prompt: For the compound CCn1cnc2c(-c3ccc(F)c(-c4ccc(S(=O)(=O)CC)cc4OC)c3)cnnc21 [DARIGABAT] , what Population Hoechst High Intensity Objects (%) is on record?
Response: 0

Prompt: For the compound Cc1cc(-c2ccc3c(c2)CC[C@H]3N2CC3(CCN(C(=O)Cc4cn5cc(C)sc5n4)CC3)C2)ncn1 [PF-5190457] , what Population Hoechst High Intensity Objects (%) is on record?
Response: 4

Prompt: For the compound COc1ccc(Cl)cc1[C@]1(F)C(=O)Nc2cc(C(F)(F)F)ccc21 [FLINDOKALNER] , what Population Hoechst High Intensity Objects (%) is on record?
Response: 0

Prompt: For the compound CC(C)C[C@H](NC(=O)c1cc2ccccc2s1)C(=O)N1CCN(C(=O)[C@H](CO)NS(=O)(=O)c2ccc(Cl)cc2Cl)CC1 , what Population Hoechst High Intensity Objects (%) is on record?
Response: 0

Prompt: For the compound CNc1nc(NCc2ncccn2)c2c(-c3ccc4ncccc4c3)c[nH]c2n1 , what Population Hoechst High Intensity Objects (%) is on record?
Response: 0

Prompt: For the compound CC(C)CC(=O)Nc1cncc(-c2ccc3[nH]nc(-c4nc5c(-c6cccc(F)c6)cncc5[nH]4)c3c2)c1 [LORECIVIVINT] , what Population Hoechst High Intensity Objects (%) is on record?
Response: 0
